- experimental system: hTREM2 (Homo sapiens)
- assay protocol: Phospho-Syk AlphaScreen/AlphaLISA assay in TREM2 and DAP12 overexpressing HEK293 cells (Example A1)
- Type: cell-based
- Set-up: expressed in transfected cells
- details: HEK293 cells
parameter: Emax

Study these solved cases before continuing.
COc1cc([C@@H]2C[C@@H](c3cc4nc(C)n(C)c(=O)c4c(-c4ccc(Cl)cc4F)n3)CCO2)ccn1 (single isomer, unassigned) [Example 175] | +++ (Emax>200 and ≤300)
Cc1nc2cc(N3CCC[C@H](N4CCCC4=O)C3)nc(-c3ccc(Cl)cc3F)c2c(=O)n1C [Example 232] | ++++ (Emax>300)
CCCn1c(C)nc2cc(N3CCO[C@H](c4ccnn4C)C3)nc(-c3ccc(Cl)cc3F)c2c1=O [Example 154] | ++++ (Emax>300)
CCn1c(C)nc2cc(N3CCO[C@@H](c4cnn(C5CC5)c4)C3)nc(-c3ccc(F)cc3F)c2c1=O [Example 151] | +++ (Emax>200 and ≤300)
Cc1nc2cc(N3C[C@H](C)O[C@@H](c4ccsc4)C3)nc(-c3ccc(Cl)cc3F)c2c(=O)n1C (single isomer, unassigned) [Example 71] | ++++ (Emax>300)
Cc1nc2cc(N3CCO[C@@H]([C@@H]4CCO4)C3)nc(-c3ccc(Cl)cc3F)c2c(=O)n1C [Example 270] | +++ (Emax>200 and ≤300)
Cc1nc2cc(N3CCO[C@H](c4cccc(Cl)c4)C3)nc(-c3ccc(Cl)cc3F)c2c(=O)n1C [Example 239] | +++ (Emax>200 and ≤300)
Cc1nc2cc(N3CCO[C@@H](c4ccnc(OCC(F)(F)F)c4)C3)nc(-c3ccc(Cl)cc3F)c2c(=O)n1C (single isomer, unassigned) [Example 96] | ++++ (Emax>300)
Cc1cc([C@@H]2CN(c3cc4nc(C)n(C)c(=O)c4c(-c4ccc(Cl)cc4F)n3)CCO2)cc(C)n1 (single isomer, unassigned) [Example 76] | ++++ (Emax>300)
Cc1nc2cc(N3CC[C@H](c4ccccn4)C3)nc(-c3ccc(Cl)cc3F)c2c(=O)n1C [Example 205] | +++ (Emax>200 and ≤300)

For the next question, use this compound.
Inquiry: I have this compound here, Cc1cc([C@@H]2C[C@H](c3cc4nc(C)n(C)c(=O)c4c(-c4ccc(Cl)cc4F)n3)CCO2)ccn1 (single isomer, unassigned) [Example 170] , and I need its recorded Emax.
Reply text: +++ (Emax>200 and ≤300)

----------
pEC50 for assorted molecules
- experimental system: hTREM2 (Homo sapiens)
- assay protocol: Phospho-Syk AlphaLisa assay in HEK293T-hTREM2 cells expressing human TREM2 and DAP12 (Example A2)
- Type: cell-based
- Parameters: expressed in transfected cells; host or cells: HEK293T-hTREM2 cells
- details: HEK293 cells, Syk phosphorylation, Examples 276-283
- Method: Measurement of TREM2 agonist potency was done using a HEK cell line expressing human TREM2 and DAP12 (HEK293T-hTREM2 cells). Binding of small molecules to, and activation of, TREM2 increases the phosphorylation of Syk. The resultant levels of Syk phosphorylation were measured using a commercial AlphaLisa reagent kit. […] After complete lysis, AlphaLisa reagents were added to the lysate, and fluorescence intensity was measured using a Perkin Elmer Envision plate reader. […]
pEC50: −log10 of the molar value.

Cc1cc([C@H]2C[C@@H](c3cc4nc(C)n(C)c(=O)c4c(C45CC(C(F)(F)F)(C4)C5)n3)CCO2)ccn1 (racemic) | > 7.30
Cc1cc([C@H]2C[C@@H](c3cc4nc(C)n(C)c(=O)c4c(-c4ccc(C(F)(F)F)nc4)n3)CCO2)ccn1 | 6.30 to 7.30
Cc1cc(C2CN(c3cc4nc(C)n(C)c(=O)c4c(-c4ccc(F)cc4F)n3)CCO2)ccn1 (centres unmarked) | > 7.30
Cc1cc([C@H]2C[C@@H](c3cc4nc(C)n(C)c(=O)c4c(-c4ccc(F)cc4F)n3)CCO2)ccn1 (racemic) | 6.30 to 7.30
COc1cc(C2CN(c3cc4nc(C)n(C)c(=O)c4c(C45CC(C(F)(F)F)(C4)C5)n3)CCO2)ccn1 (centres unmarked) | 6.30 to 7.30

Inquiry: I have this molecule here, Cc1cc(C2CN(c3cc4nc(C)n(C)c(=O)c4c(-c4ccc(C(F)(F)F)nc4)n3)CCO2)ccn1 (centres unmarked) , and I need its recorded pEC50.
Reply text: > 7.30

Inquiry: I have this molecule here, Cc1cc(C2CN(c3cc4nc(C)n(C)c(=O)c4c(C45CC(C(F)(F)F)(C4)C5)n3)CCO2)ccn1 (centres unmarked) , and I need its recorded pEC50.
Reply text: > 7.30

Inquiry: I have this molecule here, COc1cc(C2CN(c3cc4nc(C)n(C)c(=O)c4c(-c4ccc(F)cc4F)n3)CCO2)ccn1 (centres unmarked) , and I need its recorded pEC50.
Reply text: > 7.30

----------
- experimental system: UniProt:Q9NZC2
- assay protocol: Phospho-Syk AlphaScreen/AlphaLISA assay in TREM2 and DAP12 overexpressing HEK293 cells (Example A1)
- Type: cell-based
- Parameters: expressed in transfected cells
- details: HEK293 cells
parameter: Emax

Study these solved cases before continuing.
C=Cn1cc([C@H]2CN(c3cc4nc(C)n(C)c(=O)c4c(-c4ccc(Cl)cc4F)n3)CCO2)cn1 | ++++ (Emax>300)
Cc1nc2cc(N3CCC[C@H](c4ccccc4)C3)nc(-c3ccc(Cl)cc3F)c2c(=O)n1C | ++++ (Emax>300)
Cc1noc([C@H]2CCCN(c3cc4nc(C)n(C)c(=O)c4c(-c4ccc(Cl)cc4F)n3)C2)n1 (single isomer, unassigned) [Example 112] | +++ (Emax>200 and ≤300)
Cc1ccc([C@H]2C[C@@H](c3cc4nc(C)n(C)c(=O)c4c(-c4ccc(Cl)cc4F)n3)CCO2)cn1 | ++++ (Emax>300)
Cc1cnc2n1CCN(c1cc3nc(C)n(C)c(=O)c3c(-c3ccc(Cl)cc3F)n1)C2 | ++ (Emax>100 and ≤200)

Inquiry: I have this compound here, `CCn1c(C)nc2cc(N3CCO[C@@H](c4cnn(C)c4)C3)nc(-c3ccc(Cl)cc3F)c2c1=O` , and I need its recorded Emax.
Reply text: ++++ (Emax>300)

Inquiry: I have this compound here, COc1cc([C@H]2C[C@H](c3cc4nc(C)n(C)c(=O)c4c(-c4ccc(Cl)cc4F)n3)CCO2)ccn1 (single isomer, unassigned) , and I need its recorded Emax.
Reply text: ++++ (Emax>300)

Inquiry: I have this compound here, `CCn1c(C(F)(F)F)nc2cc(N3CCO[C@@H](c4cnn(C)c4)C3)nc(-c3ccc(Cl)cc3F)c2c1=O` , and I need its recorded Emax.
Reply text: ++++ (Emax>300)

Inquiry: I have this compound here, COc1ccc([C@@H]2CN(c3cc4nc(C)n(C)c(=O)c4c(-c4ccc(Cl)cc4F)n3)CCO2)cc1 [Example 237] , and I need its recorded Emax.
Reply text: ++ (Emax>100 and ≤200)

Inquiry: I have this compound here, Cc1nc2cc(N3CCO[C@H](c4ccsc4)C3)nc(-c3ccc(Cl)cc3F)c2c(=O)n1C [Example 240] , and I need its recorded Emax.
Reply text: ++++ (Emax>300)

Inquiry: I have this compound here, Cc1nc2cc(N3CCO[C@@H](c4ccnc(Cl)c4)C3)nc(-c3ccc(Cl)cc3F)c2c(=O)n1C (single isomer, unassigned) , and I need its recorded Emax.
Reply text: ++++ (Emax>300)

Inquiry: I have this compound here, CCCn1c(C)nc2cc(N3CCO[C@H](C(F)F)C3)nc(-c3ccc(Cl)cc3F)c2c1=O [Example 183] , and I need its recorded Emax.
Reply text: +++ (Emax>200 and ≤300)

Inquiry: I have this compound here, `Cc1nc2cc(N3CCO[C@@H](c4cnn(C)c4)C3)nc(-c3cccc(F)c3F)c2c(=O)n1C` , and I need its recorded Emax.
Reply text: +++ (Emax>200 and ≤300)

----------
- experimental system: hTREM2 (Homo sapiens, UniProt Q9NZC2)
- Sequence (Q9NZC2 19-230): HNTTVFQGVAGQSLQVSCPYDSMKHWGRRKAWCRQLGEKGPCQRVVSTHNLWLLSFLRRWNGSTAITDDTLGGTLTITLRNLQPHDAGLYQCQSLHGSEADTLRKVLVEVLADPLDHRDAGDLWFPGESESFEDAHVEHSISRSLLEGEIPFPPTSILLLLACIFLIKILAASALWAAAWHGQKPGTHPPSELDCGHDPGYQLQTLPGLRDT
- Sequence (O43914 22-113 partner): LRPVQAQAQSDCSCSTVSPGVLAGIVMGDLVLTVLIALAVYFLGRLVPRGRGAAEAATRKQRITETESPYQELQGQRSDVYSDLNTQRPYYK
- assay protocol: Phospho-Syk AlphaScreen/AlphaLISA assay in TREM2 and DAP12 overexpressing HEK293 cells (Example A1)
- Assay type: cell-based
- Design: expressed in transfected cells
- details: HEK293 cells
parameter: Emax

Study these solved cases before continuing.
Cc1nc2cc([C@H]3CCO[C@@H](c4cnn(C)c4)C3)nc(-c3ccc(Cl)cc3F)c2c(=O)n1C (single isomer, unassigned) | +++ (Emax>200 and ≤300)
CCCn1c(C)nc2cc(N3CCO[C@H](CC)C3)nc(-c3ccc(Cl)cc3F)c2c1=O | ++++ (Emax>300)
CCCn1c(C)nc2cc(N3CCO[C@@H](C(F)F)C3)nc(-c3ccc(Cl)cc3F)c2c1=O | ++++ (Emax>300)
Cc1nc2cc(N3CCO[C@@H](c4ccsc4)C3)nc(-c3ccc(Cl)cc3F)c2c(=O)n1C (single isomer, unassigned) | ++++ (Emax>300)
Cc1nc2cc(N3C[C@@H](C4CC4)O[C@@H](C)C3)nc(-c3ccc(Cl)cc3F)c2c(=O)n1C (single isomer, unassigned) | ++++ (Emax>300)

For the next question, use this compound.
Inquiry: I have this compound here, `Cc1nc2cc(N3CCO[C@H](c4cnn(C)c4)C3)nc(-c3ccccc3F)c2c(=O)n1C` , and I need its recorded Emax.
Reply text: +++ (Emax>200 and ≤300)

Values were extracted from patent US20250388574A1.
